meta.source: ChEMBL document CHEMBL2150983

test: Inhibition of Staphylococcus aureus MurE after 30 mins by HPLC analysis
pIC50: −log10 of the molar value.
measure: pIC50

[[record]]
chemical_string = "O=C(O)CC[C@@H](NC(=O)c1cccc(NCc2ccc(/C=C3\\SC(=S)NC3=O)cc2)c1)C(=O)O"
operator_symbol = "="
val = 4.77

[[record]]
chemical_string = "O=C(O)CC[C@@H](NC(=O)c1cccc(NCc2ccc(/C=C3\\SC(=O)NC3=O)cc2)c1)C(=O)O"
operator_symbol = "<"
val = 3.70

